# System: SK-MEL-28
# test-description: NCI tumour cell line growth inhibition, 48 h
The source made the active and inactive calls. Cut-off read from the data, not from the text of the source: active = GI50 up to about 1.1 µM and inactive = higher.
The entries below are paired with their reported GI50.

compound="Clc1cccc(N2CCN(CCN3CCc4c([nH]c5ccccc45)C3c3cccnc3)CC2)c1 (stereo unspecified)" target_system=SK-MEL-28 value_reported="> 100 µM (inactive)"

Look up GI50 for this compound: CCOC(=O)C1([Se]c2ccccc2)CCCC1=O (stereo unspecified) 18.9 µM (inactive)

Entry CCOC(=O)c1cn2c(ccc3sc4ccccc4c(=O)c32)n1 has what GI50? > 100 µM (inactive)

GI50 lookup needed for COc1ccc(N2C(=O)CS(=O)(=O)C2c2cccc(Oc3ccccc3)c2)cc1 (stereo unspecified) , thanks. 16.2 µM (inactive)

Which GI50 reading was recorded for the compound COc1ccc2c(c1)O[C@@H]1[C@@H](OC3OC(CO)C(O)C(O)C3O)Oc3cc(OC)c(OC)cc3[C@]1(O)C2=O (stereo partly specified) ? 25.8 µM (inactive)

// lookup GI50 for O=C(O)c1ccccc1C(=O)c1ccc2c(c1)Cc1ccccc1-2 53.7 µM (inactive)

---

# Tested on: SF-268
# test-description: NCI tumour cell line growth inhibition, 48 h
Calls of active or inactive are those of the source. Cut-off read from the data, not from the text of the source: active = GI50 up to about 1.1 µM and inactive = higher. Non-standard residues stand in square brackets, D forms with d. Residues, ends and D or L forms follow the SMILES beside them. ξ: configuration not given here. *: point of attachment. X18 = COC1=CC(=O)N(C(=O)C(O*)C(C)C)C1Cc1ccccc1; ξNMe2Val = CC(C)C(C(=O)*)N(C)C; NMeV = CN[CH](C(=O)O)C(C)C
// one of t = active, f = inactive, no free text

Record excerpt, results attached:
compound="C=C1C(=O)C23CC1CCC2C12CO[C@H](O)[C@H]1C(C)(C)[C@H](OC(C)=O)C[C@H]2OC3=O (stereo partly specified)" class_assignment=f
compound=O=C1CN(c2ccccc2)C(=O)CN1CCN1CC(=O)N(c2ccccc2)CC1=O class_assignment=f
compound="COC1=CC(=O)N(C(=O)C(OC(=O)C2CCCN2C(=O)C2CCCN2C(=O)C(C(C)C)N(C)C(=O)C(NC(=O)C(C(C)C)N(C)C)C(C)C)C(C)C)C1Cc1ccccc1 (stereo unspecified) (ξNMe2Val-V[NMeV]PP-X18; configuration not given here)" class_assignment=t
compound=Cc1cc2[nH]c3c(C#N)c(-c4ccccc4)c(/N=N/c4ccc(F)cc4)c(=O)n3c2cc1C class_assignment=f
compound=OCCN1CN(c2nc(N3CN(CCO)C3)nc(N3CN(CCO)C3)n2)C1 class_assignment=f

GET /call?item= O=C1C=CC(=O)c2ccc(=O)ccc21 returns the recorded outcome of this test. f

Give the logged outcome of this assay for the following compound: Oc1ccccc1C(c1cc2c(cc1O)OCO2)N1CCOCC1 (stereo unspecified) f

Test call for this compound, please: CCN1CCC(O)(c2ccccc2)C(C(=O)c2ccccc2)C1 (stereo unspecified) f

What outcome does the record of this test show for Cc1ccc(N(C(=O)CC(=O)NN)C(=O)c2ccccc2Cl)cc1 ? f

What did the test return for COc1ccc2nccc(/C=C/c3ccc(N(C)C)cc3)c2c1 ? f

// param item: COC1C=COC2(C)Oc3c(C)c(O)c4c(O)c(c(/C=N/N5CCN(N)CC5)c(O)c4c3C2=O)NC(=O)C(C)=CC=CC(C)C(O)C(C)C(O)C(C)C(OC(C)=O)C1C (stereo unspecified) ; yields the recorded call f

---

# Tested on: SN12C
# test-description: NCI tumour cell line growth inhibition, 48 h
Activity calls are given as the source filed them. Rule as the data show it: active = GI50 up to about 1.1 µM and inactive = higher.
observable: GI50

Known results for compounds:
compound="OC1c2ccccc2CCC1CN1CCN(CCOC(c2ccc(F)cc2)c2ccc(F)cc2)CC1 (stereo unspecified)" value_reported="13.1 µM (inactive)"
compound="CN(C)CC1CCC(CN(C)C)C1=O (stereo unspecified)" value_reported="6.89 µM (inactive)"
compound=O=C1C[C@@H](c2ccccc2)O[C@@H](c2ccccc2)C1 value_reported="84.7 µM (inactive)"

Can you share its GI50? I mean this compound: N#CC(=C1CCN(CCCC(=O)c2ccc(F)cc2)CC1)c1ccccc1 > 100 µM (inactive)

Query: GI50; subject: OC[C@H]1NC[C@@H](O)[C@@H](O)[C@H]1O > 100 µM (inactive)

Form field: reported GI50 of Nc1nc2c(c(=O)[nH]1)C(c1ccccc1)CC(=O)N2 (stereo unspecified) > 100 µM (inactive)

Could you tell me which GI50 is on file for COc1ccc(C)cc1NC(=S)N/N=C/c1ccc(SC)cc1 ? > 100 µM (inactive)

GET /values?readout=GI50&item= Cc1ccc(/N=c2/oc3c(ccc4ccccc43)nc2Nc2ccc(C)cc2)cc1 > 100 µM (inactive)

---

# System: HOP-62
# test-description: NCI tumour cell line growth inhibition, 48 h
Calls of active or inactive are those of the source. No stated cut-off is given here; in the data, active = GI50 up to about 1.1 µM and inactive = higher.
Log the outcome using a class from active, inactive

molecule=COc1ccc2c(c1O)[C@@]13C=C(O)C(=O)C=C1[C@@H](C2)N(C)CC3 class_assignment=inactive
molecule=COc1cc2c(c(O)c1OC)C(=O)[C@@H]1CCC(=O)N1C2 class_assignment=inactive
molecule=COc1ccc(/N=C2\C(=S)N(c3ccc(OC)cc3)/C(=N/S(=O)(=O)c3ccccc3)N2c2ccccc2)cc1 class_assignment=inactive
molecule="O=C(O)CC12C3C4C5C3C1C5C42 (centres undefined)" class_assignment=inactive
molecule=c1ccc(CNCCCNCCCCNCCCNCc2ccccc2)cc1 class_assignment=inactive

Tell me the assay call for Cc1ccc2c(O)cc(-c3csc4ccccc34)nc2n1 please. active

Dear colleague, could you share the recorded outcome for CCn1c2nc(=O)n(CCCCCCCCSC(c3ccccc3)(c3ccccc3)c3ccccc3)c(=O)c-2nc2ccccc21 when you have a moment? inactive

Please let me know the test result on file for Cc1nc(-c2ccc(/N=C/c3ccc(N(CCOS(C)(=O)=O)CCOS(C)(=O)=O)cc3C)cc2)cs1 . inactive

Identify the outcome logged in this assay for the molecule shown: OCCCCCNc1nc(O)c2[nH]cnc2n1 inactive

What was the test verdict on COc1ccc(N2C(=O)CS(=O)(=O)C2c2cccc(Oc3ccccc3)c2)cc1 (centres undefined) ? inactive

Which outcome was entered for the molecule OC(c1ccc(Cl)cc1)(c1ccc(Cl)cc1)c1cncnc1 in this test? inactive

Outcome? Oc1ccccc1C(c1cc2c(cc1O)OCO2)N1CCOCC1 (centres undefined) inactive

What was the test verdict on CCOC(=O)c1cn2c(ccc3sc4ccccc4c(=O)c32)n1 ? inactive

---

# Tested on: UACC-62
# test-description: NCI tumour cell line growth inhibition, 48 h
Structures can show the parent of a compound that is named as a salt. Calls of active or inactive are those of the source. Rule as the data show it: active = GI50 up to about 1.1 µM and inactive = higher.
observable: GI50

Some entries whose results are on file:
compound=O=C1C[C@@H](c2ccccc2)O[C@@H](c2ccccc2)C1 value_reported="> 100 µM (inactive)"
compound=O=[N+]([O-])/C(C(Cl)=C(Cl)Cl)=C(\SCc1ccccc1)N1CCCCC1 value_reported="17.9 µM (inactive)"
compound="Cn1ccnc1CC(C)(O)c1ccccc1 (configuration not stated)" value_reported="> 100 µM (inactive)"
compound="CC(=O)N(O)CCCCCNC(=O)CCC(=O)N(O)CCCCCNC(=O)CCC(=O)N(O)CCCCCN [DEFEROXAMINE HYDROCHLORIDE]" value_reported="31.6 µM (inactive)"
compound=N[C@H](C(=O)O)[C@H]1ON=C(Cl)[C@@H]1O value_reported="3.3 µM (inactive)"
compound="CC1(CCCO)CCCCCCCCCC(C)(CCCO)C1=O (configuration not stated)" value_reported="> 100 µM (inactive)"
compound=COC1=C(OC)CCC(/C(C#N)=C/c2ccc(OC)c(OC)c2)=C1 value_reported="> 100 µM (inactive)"
compound=Cn1nc(N)nc1N=S(C)(C)=N value_reported="> 100 µM (inactive)"
compound=CN(/N=C\c1ccc2ccccc2c1)C1=NCCCCN1 value_reported="27.2 µM (inactive)"
compound="COc1cc(C(CN)N(C)C)cc(OC)c1OC (configuration not stated)" value_reported="> 100 µM (inactive)"

Give GI50 (UACC-62) of the following compound: COc1cc2nc(-c3cccs3)nc(Nc3cccc([N+](=O)[O-])c3)c2cc1OC 16.8 µM (inactive)

Give recorded GI50 with UACC-62 for the following compound: COc1ccc(C2C(=O)c3c(OC)cc(OC)cc3OC2c2cccnc2)cc1 (configuration not stated) 82.2 µM (inactive)

---

# Test system: SF-268
# test-description: NCI tumour cell line growth inhibition, 48 h
Calls of active or inactive are those of the source. Rule as the data show it: active = GI50 up to about 1.1 µM and inactive = higher.
A correct response names exactly one class from active, inactive

compound="CC1=CC2C3(C)C(C)(C(C)=CP3(=O)c3c(C(C)C)cc(C(C)C)cc3C(C)C)C1P2(=O)c1c(C(C)C)cc(C(C)C)cc1C(C)C (stereo not drawn)" class_assignment=inactive
compound=O=C1/C(=C/c2ccccc2)CCCC/C1=C\c1ccccc1 class_assignment=inactive
compound="CCOC(=O)C1([Se]c2ccccc2)CCCC1=O (stereo not drawn)" class_assignment=inactive
compound="Nc1nc2c(c(=O)[nH]1)C(c1ccccc1)CC(=O)N2 (stereo not drawn)" class_assignment=inactive
compound=CN(C)CCCOc1ccc(/C=C2/CCC/C(=C/c3ccc(OCCCN(C)C)cc3)C2=O)cc1 class_assignment=inactive
compound="CC1C(=O)OC2CC[N+]3(CC(=O)c4ccc(Br)cc4)CC=C(COC(=O)C(C)(O)C1(C)O)C23 (stereo not drawn)" class_assignment=inactive
compound=COc1ccc2c(c1)[C@@H]1c3cc(OC)c(OC)cc3CCN1CCC2 class_assignment=inactive
compound=Cc1ccc(/N=c2/oc3c(ccc4ccccc43)nc2Nc2ccc(C)cc2)cc1 class_assignment=inactive

Per the records of this test, what outcome belongs to COC(=O)/C=C\C(C#N)(C#N)/N=C/c1ccc(OC)cc1 ? inactive

Each compound tested received a call. Report the one for COc1ccccc1N1CCN(CCCNC(=O)c2cc(Cl)c(N)c(Cl)c2)CC1 . inactive

Give the logged outcome of this assay for the following compound: CCOC(=O)c1cn2c(ccc3sc4ccccc4c(=O)c32)n1 inactive

Write down the call the test reported for this compound. Item: Cc1nc(Cl)c(CBr)c(Cl)n1 inactive

In this assay, the call recorded for COc1cccc(/C=C2\N=C(c3ccccc3)OC2=O)c1 was what? inactive

In this assay, the call recorded for O=C(O)C1C(C(=O)O)C(C(=O)O)C1C(=O)O (stereo not drawn) was what? inactive

Can you look up the reported call for O=C1NC2c3c(I)sc(I)c3C(=O)C2O1 (stereo not drawn) for me? inactive
